assay.notes: Solubility in aqueous medium
Type: physicochemical
setup.conditions: aqueous medium without micelles
Field: solubility. Provide a value for each of the compounds that follow.

I'd like to know its solubility. The compound in question is "CC(=O)O[C@H]1C(=O)[C@@]2(C)[C@H]([C@H](OC(=O)c3ccccc3)[C@]3(O)C[C@H](OC(=O)[C@H](O)[C@@H](NC(=O)c4ccccc4)c4ccccc4)C(C)=C1C3(C)C)[C@]1(OC(C)=O)CO[C@@H]1C[C@@H]2O"
< 1 µg/mL

What measured solubility goes with "CC(=O)O[C@@]12CO[C@@H]1C[C@H](O)[C@@]1(C)C(=O)[C@H](O)C3=C(C)[C@@H](OC(=O)[C@H](O)[C@@H](NC(=O)OC(C)(C)C)c4ccccc4)C[C@@](O)([C@@H](OC(=O)c4ccccc4)[C@H]21)C3(C)C" ?
< 1 µg/mL

----------
assay.notes: Solubility in aqueous medium
Assay type: physicochemical
setup.conditions: aqueous medium with teicoplanin micelles, aqueous with cosolvent or surfactant or cyclodextrin
For each of the compounds below, state its solubility.
Note: a bare number is incomplete; add the unit.

Item CC(=O)O[C@@]12CO[C@@H]1C[C@H](O)[C@@]1(C)C(=O)[C@H](O)C3=C(C)[C@@H](OC(=O)[C@H](O)[C@@H](NC(=O)OC(C)(C)C)c4ccccc4)C[C@@](O)([C@@H](OC(=O)c4ccccc4)[C@H]21)C3(C)C [Dtx, Docetaxel] has what recorded solubility?
10 mg/mL

Look up solubility: CC(=O)O[C@H]1C(=O)[C@@]2(C)[C@H]([C@H](OC(=O)c3ccccc3)[C@]3(O)C[C@H](OC(=O)[C@H](O)[C@@H](NC(=O)c4ccccc4)c4ccccc4)C(C)=C1C3(C)C)[C@]1(OC(C)=O)CO[C@@H]1C[C@@H]2O [Ptx, Paclitaxel]
10 mg/mL
